The reported measurements were obtained from PubChem BioAssay (NCI).

- Tested on: IGROV1 ovarian
- MEASUREMENT_PROTOCOL: NCI tumour cell line growth inhibition, 48 h
OBSERVED_PROPERTY: TGI

Sample answers from the record:
{"columns": ["COMPOUND", "TGI"],
 "data": [
  ["Cc1ccc(C(CC(=O)c2ccccc2)C(C(=O)c2ccccc2)C(c2ccc(C)cc2)C2C(=O)NC(=S)NC2=O)cc1 (centres undefined)", "> 50 µM"],
  ["CCCCCCCCCCCCCC(=O)OC1C(CO)OC(=O)C1O (centres undefined)", "> 100 µM"],
  ["Nc1ccc(-c2nc3ccccc3s2)cc1F", "> 100 µM"]
]}

Read the next record carefully.
Identify the measured TGI of `COc1cc(O)c2c(c1O)C(=O)c1cc(C)ncc1C2=O` for IGROV1 ovarian. > 50 µM

---

- Tested on: IGROV1 ovarian
- MEASUREMENT_PROTOCOL: NCI tumour cell line growth inhibition, 48 h
Output T for TGI not less than 20 µM; output F otherwise.

# count of solved cases: 2
{"columns": ["MOLECULE", "EXPERIMENTAL_TARGET", "CLASS_LABEL"],
 "data": [
  ["Cc1cn(C2CC(N=[N+]=[N-])C(C(=O)O)O2)c(=O)[nH]c1=O (centres undefined)", "IGROV1 ovarian", "T"],
  ["C/C=C/C=C\\C(=O)C1c2cccc(O)c2C(=O)c2c(O)cc(C)cc21 (centres undefined)", "IGROV1 ovarian", "F"]
]}

Quick check, TGI >= 20 µM? `Cc1ccc(C(=O)c2[nH]c(Nc3ccc(Cl)cc3)c(C(=S)Nc3ccccc3)c2N)cc1` F

Quick check, TGI >= 20 µM? `Cc1ccc(S(=O)(=O)c2ccsc2NC(=O)c2ccccc2)cc1` T

Quick check, TGI >= 20 µM? `O=C1NCC2(CCNCC2)N1` T

Quick check, TGI >= 20 µM? `COc1ccc(C(=O)c2cc(OC)c(OC)c(OC)c2)cc1/C=C/C(=O)c1ccc2c(c1)OCO2` F

---

- System: UACC-62 melanoma
- MEASUREMENT_PROTOCOL: NCI tumour cell line growth inhibition, 48 h
OBSERVED_PROPERTY: TGI (µM)
Express your answer in µM, writing the number without its unit.

{"columns": ["CPD_SMILES", "EXPERIMENTAL_TARGET", "UNIT_ABBREVIATION", "ENDPOINT_VALUE"],
 "data": [
  ["O=C(/C=C/c1ccc(O)cc1)c1cc(O)cc(O)c1", "UACC-62 melanoma", "µM", 24.1],
  ["O=C(O)CP(=O)(c1ccccc1)c1ccccc1.O=C(O)CP(=O)(c1ccccc1)c1ccccc1.[Cd]", "UACC-62 melanoma", "µM", 6.31],
  ["Cc1ccc(C(=O)c2[nH]c(Nc3ccc(Cl)cc3)c(C(=S)Nc3ccccc3)c2N)cc1", "UACC-62 melanoma", "µM", 28.1]
]}

Read the next record carefully.
Could you tell me which TGI is on file for `CC#CC(=O)N[C@H]1CCCN(c2c(F)cc(C(N)=O)c3[nH]c(C)c(C)c23)C1` ? 28.5

---

- System: HCC-2998 colon
- MEASUREMENT_PROTOCOL: NCI tumour cell line growth inhibition, 48 h
OBSERVED_PROPERTY: TGI

Sample answers from the record:
{"columns": ["COMPOUND", "ENDPOINT_VALUE"],
 "data": [
  ["NC(=O)OCC(COc1ccc(Cl)cc1)OC(=O)c1cc([N+](=O)[O-])cc([N+](=O)[O-])c1 (stereo not given)", "> 100 µM"],
  ["COC(=O)C1=C(C)N(NC(=O)c2cccc(Cl)c2)C(C)(O)C12CCOC2=O (stereo not given)", "> 100 µM"],
  ["C[C@]12CC/C(=N\\OC(=O)Nc3ccccc3)C=C1CC[C@@H]1C2CC[C@@]2(C)C1CC[C@@H]2OC(=O)Nc1ccccc1 (stereo not given in full)", "> 100 µM"],
  ["N#Cc1c(-c2ccccc2)c(C#N)c(=S)n(C2OCC(O)C(O)C2O)c1N (stereo not given)", "> 100 µM"]
]}

Read the next record carefully.
Could you tell me which TGI is on file for CCCC(=O)Nc1ncnc2c1ncn2C1OC2COP(=O)(O)OC2C1OC(=O)CCC (stereo not given) ? > 1000 µM
